Source listed as patent US9096639B2.

Parameter pIC50: see the listing below.
# System Name: human progesterone receptor A (Homo sapiens, UniProt P06401)
# Sequence (P06401 1-769 isoform P06401-2): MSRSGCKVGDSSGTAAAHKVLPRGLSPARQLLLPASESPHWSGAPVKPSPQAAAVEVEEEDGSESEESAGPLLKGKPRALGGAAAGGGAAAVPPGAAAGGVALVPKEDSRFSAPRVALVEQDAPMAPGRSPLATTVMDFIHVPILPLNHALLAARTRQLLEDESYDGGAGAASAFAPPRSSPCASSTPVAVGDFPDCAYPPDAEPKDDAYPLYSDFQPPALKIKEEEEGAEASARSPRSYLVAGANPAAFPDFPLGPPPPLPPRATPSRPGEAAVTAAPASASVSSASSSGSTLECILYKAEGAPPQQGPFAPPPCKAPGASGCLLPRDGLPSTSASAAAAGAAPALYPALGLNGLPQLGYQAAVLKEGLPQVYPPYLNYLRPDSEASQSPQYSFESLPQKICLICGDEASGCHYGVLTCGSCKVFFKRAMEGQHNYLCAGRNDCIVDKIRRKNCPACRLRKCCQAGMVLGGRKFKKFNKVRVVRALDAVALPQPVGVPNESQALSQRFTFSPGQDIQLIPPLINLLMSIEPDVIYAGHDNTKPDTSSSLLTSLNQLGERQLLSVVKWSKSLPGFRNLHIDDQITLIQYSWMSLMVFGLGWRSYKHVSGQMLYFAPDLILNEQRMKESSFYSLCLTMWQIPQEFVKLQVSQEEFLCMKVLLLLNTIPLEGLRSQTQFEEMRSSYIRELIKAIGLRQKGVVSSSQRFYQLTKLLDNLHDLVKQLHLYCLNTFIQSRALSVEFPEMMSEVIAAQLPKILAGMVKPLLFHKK
# Experiment Description: Progesterone receptor transactivation test in stably transfected SK-N-MC cells (PR-A, MMTV-LUC reporter)
# Applied Conditions: 0.1 nmol/l promegestone, 24 hours, read-out: PR-A IC50 (antagonistic potency)
Counter-ions that a name gives are not always drawn.
Remember, pIC50 is on a log scale: it is -log10 of the molar concentration.

{"Molecule": "CC(OC(=O)[C@@H]1CCCN1)c1ccc([C@H]2C[C@@]3(C)C(CC[C@@]3(O)C(F)(F)C(F)(F)F)C3CCC4=CC(=O)CCC4=C32)cc1 (mixture of isomers) [Example 13, hydrochloride]", "pIC50": 9.57}
{"Molecule": "CC(=O)O[C@H](C)c1ccc([C@H]2C[C@@]3(C)C(CC[C@@]3(O)C(F)(F)C(F)(F)F)C3CCC4=CC(=O)CCC4=C32)cc1 (mixture of isomers) [Example 1]", "pIC50": 10.15}

Can you look up the measured pIC50 of C=CCOC(=O)N[C@@H](C)C(=O)O[C@@H](C)c1ccc([C@H]2C[C@@]3(C)[C@@H](CC[C@@]3(O)C(F)(F)C(F)(F)F)[C@@H]3CCC4=CC(=O)CCC4=C32)cc1 [Example 10] for me?
10.10

Please answer likewise for CC(OC(=O)[C@H](C)NC(=O)OC(C)(C)C)c1ccc([C@H]2C[C@@]3(C)C(CC[C@@]3(O)C(F)(F)C(F)(F)F)C3CCC4=CC(=O)CCC4=C32)cc1 (mixture of isomers) [Example 7]
9.85

Another molecule: Cc1nccn1CCC(=O)O[C@@H](C)c1ccc([C@H]2C[C@@]3(C)[C@@H](CC[C@@]3(O)C(F)(F)C(F)(F)F)[C@@H]3CCC4=CC(=O)CCC4=C32)cc1 (single isomer, unassigned) [Example 14A]
9.74

Repeat for the following molecule: CC(OC(=O)CCc1nccs1)c1ccc([C@H]2C[C@@]3(C)C(CC[C@@]3(O)C(F)(F)C(F)(F)F)C3CCC4=CC(=O)CCC4=C32)cc1 (mixture of isomers) [Example 15]
10.00

Here is the next molecule: C=CCOC(=O)N[C@@H](C)C(=O)O[C@H](C)c1ccc([C@H]2C[C@@]3(C)[C@@H](CC[C@@]3(O)C(F)(F)C(F)(F)F)[C@@H]3CCC4=CC(=O)CCC4=C32)cc1 [Example 9]
11.00
